target: human D2-long dopamine receptor (Homo sapiens (Human)); test: Radioligand binding (125I-IABN competition), D2; settings: HEK cell membranes expressing human D2-long
Sequence (P14416 whole entry): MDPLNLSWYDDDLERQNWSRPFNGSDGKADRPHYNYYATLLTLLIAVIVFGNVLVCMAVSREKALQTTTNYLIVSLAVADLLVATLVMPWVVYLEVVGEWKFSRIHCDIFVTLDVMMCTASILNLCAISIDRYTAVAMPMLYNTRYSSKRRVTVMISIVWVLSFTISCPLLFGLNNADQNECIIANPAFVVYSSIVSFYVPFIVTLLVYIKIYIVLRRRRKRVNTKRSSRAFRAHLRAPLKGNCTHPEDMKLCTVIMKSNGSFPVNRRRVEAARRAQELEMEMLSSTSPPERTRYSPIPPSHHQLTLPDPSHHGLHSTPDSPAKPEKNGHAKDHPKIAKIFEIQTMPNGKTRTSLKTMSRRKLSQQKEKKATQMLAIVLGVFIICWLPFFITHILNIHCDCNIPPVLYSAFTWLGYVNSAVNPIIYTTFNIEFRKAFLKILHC
REPORTED_ENDPOINT: Ki (nM)

{"COMPOUND": "CC(C)(C)c1nc(N2CCN(CCCCNC(=O)N3CCc4ccccc4CC3)CC2)cc(C(F)(F)F)n1", "SUBJECT_OF_TEST": "human D2-long dopamine receptor (Homo sapiens (Human))", "Ki [nM]": 646}
{"COMPOUND": "Cc1ccc(N2CCN(C(=O)NCCCCN3CCN(c4cc(C(F)(F)F)nc(C(C)(C)C)n4)CC3)CC2)cc1", "SUBJECT_OF_TEST": "human D2-long dopamine receptor (Homo sapiens (Human))", "Ki [nM]": 802}
{"COMPOUND": "Cc1nc(N2CCN(CCCCNC(=O)N3CCc4[nH]c5ccc(C(F)(F)F)cc5c4C3)CC2)cc(C(C)(C)C)n1", "SUBJECT_OF_TEST": "human D2-long dopamine receptor (Homo sapiens (Human))", "Ki [nM]": 6400}
{"COMPOUND": "Cc1cc(N2CCN(CCCCNC(=O)N3CCC(n4c(=O)[nH]c5ccccc54)CC3)CC2)nc(C(C)(C)C)n1", "SUBJECT_OF_TEST": "human D2-long dopamine receptor (Homo sapiens (Human))", "Ki [nM]": 680}
{"COMPOUND": "O=C(NCCCCN1CCN(c2ccnc3ccccc23)CC1)N1CCN(c2ccccc2)CC1", "SUBJECT_OF_TEST": "human D2-long dopamine receptor (Homo sapiens (Human))", "Ki [nM]": 1170}
{"COMPOUND": "CN1CCN(C(=O)NCCCCN2CCN(c3cc(C(F)(F)F)nc(C(C)(C)C)n3)CC2)CC1", "SUBJECT_OF_TEST": "human D2-long dopamine receptor (Homo sapiens (Human))", "Ki [nM]": 167}

[A] CC(C)(C)c1nc(N2CCN(CCCCNC(=O)N3CCN(S(=O)(=O)c4ccccc4)CC3)CC2)cc(C(F)(F)F)n1
[B] Cc1cc(N2CCN(CCCCNC(=O)c3cn4ccccc4n3)CC2)nc(C(C)(C)C)n1
[C] CC(C)(C)c1nc(N2CCN(CCCCNC(=O)N3CCN(c4cc(C(F)(F)F)nc(C(C)(C)C)n4)CC3)CC2)cc(C(F)(F)F)n1
Ranking field: Ki; order: falling. Write the labels in rank order as requested. C, A, B

[A] O=C(NCCCCN1CCN(c2ccnc3cc(Cl)ccc23)CC1)C1CCC(c2ccccc2)CC1 (centres unmarked)
[B] CC(C)(C)c1nc(N2CCN(CCCCNC(=O)C3CCN(Cc4ccccc4)CC3)CC2)cc(C(F)(F)F)n1
When their Ki values are compared, which is larger, A or B ? # answer = label of selected item A

[a] CC(C)(C)c1nc(N2CCN(CCCCNC(=O)N3CCN(Cc4cccc(C#N)c4)CC3)CC2)cc(C(F)(F)F)n1
[b] CC(C)(C)c1nc(N2CCN(CCCCNC(=O)N3CCCN(c4ccccc4)CC3)CC2)cc(C(F)(F)F)n1
When their Ki values are compared, which is larger, a or b ? # answer = label of selected item a

[I] CC(C)(C)c1nc(N2CCN(CCCCNC(=O)N3CCc4[nH]c5ccc(Cl)cc5c4C3)CC2)cc(C(F)(F)F)n1
[II] O=C(NCCCCN1CCN(c2cccc(Cl)c2Cl)CC1)N1CCN(c2ccccc2)CC1
[III] O=C(NCCCCN1CCN(c2ccnc3ccccc23)CC1)c1cn2ccccc2n1
[IV] N#Cc1cc(N2CCN(CCCCNC(=O)N3CCN(c4ccccc4)CC3)CC2)cc(C(F)(F)F)c1
Ranking field: Ki; order: falling. Write the labels in rank order as requested. I, III, IV, II
